Would you mind telling me the reported binding signal of each entry?
targetOfAssay: d-enCas12a-Ultra (Acidaminococcus sp., UniProt U2UMQ6 1-1307, E174R;S542R;K548R;M537R;F870L;D908A;E993A;D1235A)
experimentSummary: Spec-seq (native PAGE EMSA with sequencing of bound and unbound); 25 mM Tris-HCl pH 7.4, 150 mM KCl, 5 mM MgCl2, 10% glycerol, 1 mM DTT, 40 ng/uL salmon sperm DNA; 400 nM Cas12a, 480 nM crRNA, 50 nM library, 37 C 1 h; native PAGE at room temperature; high values mean tight binding;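 also: relative affinity from the bound to unbound sequence frequency ratio in Spec-seq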
runConditions: protein: recombinant
Answers are plain numbers, in lnKA.

Worked examples, 2 binders total:
binder	obsValue
CACG (dsDNA) DNA 1: GCTATCTAGTGCTCAGTACGCACTGCACGAGGAAACTTCTGGCAGGACCAGGTCATGAGATCGGAAGAGCACACGTCTGAACTCCAGTCA DNA 2: TGACTGGAGTTCAGACGTGTGCTCTTCCGATCTCATGACCTGGTCCTGCCAGAAGTTTCCTCGTGCAGTGCGTACTGAGCACTAGATAGC RNA: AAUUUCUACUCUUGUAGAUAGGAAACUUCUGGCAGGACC	-1.41
GTTC (dsDNA) DNA 1: GCTATCTAGTGCTCAGTACGCACTGGTTCAGGAAACTTCTGGCAGGACCAGGTCATGAGATCGGAAGAGCACACGTCTGAACTCCAGTCA DNA 2: TGACTGGAGTTCAGACGTGTGCTCTTCCGATCTCATGACCTGGTCCTGCCAGAAGTTTCCTGAACCAGTGCGTACTGAGCACTAGATAGC RNA: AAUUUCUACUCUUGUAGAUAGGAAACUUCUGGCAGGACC	-0.198

Turning now to a further record.
Lookup: Using the record for TAAC (dsDNA) DNA 1: GCTATCTAGTGCTCAGTACGCACTGTAACAGGAAACTTCTGGCAGGACCAGGTCATGAGATCGGAAGAGCACACGTCTGAACTCCAGTCA DNA 2: TGACTGGAGTTCAGACGTGTGCTCTTCCGATCTCATGACCTGGTCCTGCCAGAAGTTTCCTGTTACAGTGCGTACTGAGCACTAGATAGC RNA: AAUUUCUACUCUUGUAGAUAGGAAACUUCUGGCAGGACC , report its binding signal.
Found: -2.03
